# system.tested: 3-beta-hydroxysteroid-Delta(8),Delta(7)-isomerase (Cavia porcellus)
# Sequence (Q60490 whole entry): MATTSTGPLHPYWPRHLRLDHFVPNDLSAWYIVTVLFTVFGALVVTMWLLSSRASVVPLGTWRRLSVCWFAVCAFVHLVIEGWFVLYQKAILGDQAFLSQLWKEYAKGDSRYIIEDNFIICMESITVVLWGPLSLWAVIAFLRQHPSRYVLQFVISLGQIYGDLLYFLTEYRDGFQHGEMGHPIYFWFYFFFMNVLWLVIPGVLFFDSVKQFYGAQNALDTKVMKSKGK
# assay.name: Displacement of [3H](-)-(S)-emopamil from EBP in guinea pig liver membrane
parameter: pKi
Please express pKi as -log10 of the molar concentration.

Some entries whose results are on file:
>>> test_value("c1ccc([C@H]2CC[C@@H](N3CCN(c4ccccn4)CC3)CC2)cc1")
7.31
>>> test_value("COc1ccccc1[C@H]1CC[C@@H](N2CCN(c3ccccn3)CC2)CC1")
8.09
>>> test_value("COc1ccccc1[C@H]1CC[C@H](N2CCN(c3ccccn3)CC2)CC1")
7.87

What the record says about COc1cccc(C2=CCC(N3CCN(c4ccccn4)CC3)CC2)c1 (configuration not stated) : pKi is 5.58

What the record says about `Cc1ccccc1NC(=N)Nc1ccccc1C` : pKi is 5.12

What the record says about COc1cccc(C2=CCC(N3CCN(c4ccccc4)CC3)CC2)c1 (configuration not stated) : pKi is 6.34

What the record says about COc1cccc2c1CCCC2CCCN1CCN(C2CCCCC2)CC1 (configuration not stated) : pKi is 8.08

What the record says about `Cc1ccccc1[C@H]1CC[C@H](N2CCN(c3ccccn3)CC2)CC1` : pKi is 8.04

What the record says about `c1ccc(CCN2CCCCC2)cc1` : pKi is 6.23

What the record says about `COc1cccc(OC)c1[C@H]1CC[C@H](N2CCN(c3ccccn3)CC2)CC1` : pKi is 8.15

What the record says about `COc1cccc(OC)c1[C@H]1CC[C@@H](N2CCN(c3ccccn3)CC2)CC1` : pKi is 8.31

What the record says about `COc1ccc([C@H]2CC[C@@H](N3CCN(c4ccccn4)CC3)CC2)cc1` : pKi is 7.48

What the record says about `COc1ccc([C@H]2CC[C@H](N3CCN(c4ccccn4)CC3)CC2)cc1` : pKi is 7.15

What the record says about `Fc1cccc(F)c1[C@H]1CC[C@H](N2CCN(c3ccccn3)CC2)CC1` : pKi is 6.97

What the record says about CC(C(O)c1ccc(O)cc1)N1CCC(Cc2ccccc2)CC1 (racemic) [IFENPRODIL] : pKi is 7.79

What the record says about `COc1cccc([C@H]2CC[C@@H](N3CCN(c4cccc5ccccc45)CC3)CC2)c1` : pKi is 7.78

What the record says about `COc1cccc([C@H]2CC[C@H](N3CCN(c4ccccn4)CC3)CC2)c1` : pKi is 7.79
